Target: ALK2 (Homo sapiens (Human), UniProt Q04771)
Sequence (Q04771 21-509): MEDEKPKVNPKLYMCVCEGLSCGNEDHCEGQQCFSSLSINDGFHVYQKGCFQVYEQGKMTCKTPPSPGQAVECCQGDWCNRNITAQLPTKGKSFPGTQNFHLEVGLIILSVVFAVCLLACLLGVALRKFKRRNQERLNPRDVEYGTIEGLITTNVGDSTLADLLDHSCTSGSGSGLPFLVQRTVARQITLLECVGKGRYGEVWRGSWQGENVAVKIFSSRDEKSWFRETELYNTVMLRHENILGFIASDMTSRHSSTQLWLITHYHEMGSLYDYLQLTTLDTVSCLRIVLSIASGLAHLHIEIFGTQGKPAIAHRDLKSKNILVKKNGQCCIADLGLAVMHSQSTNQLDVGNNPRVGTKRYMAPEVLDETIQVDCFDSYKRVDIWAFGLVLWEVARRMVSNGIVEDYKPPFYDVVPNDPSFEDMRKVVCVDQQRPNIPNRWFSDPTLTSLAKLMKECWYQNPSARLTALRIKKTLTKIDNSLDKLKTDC
pIC50: −log10 of the molar value.
assay-endpoint: pIC50

> print(dat)
                                    molecule     obs.value
 1  COc1cc(-n2cnc(Nc3nc(N4CCC[C@H]4CO)c4sccc4n3)c2)cc(OC)c1OC [Compound 138b]        > 7.00
 2  OC[C@@H]1CCCN1c1nc(Nc2cn(-c3cccc(OC(F)(F)F)c3)cn2)nn2cccc12 [Compound 262d]        < 6.00
 3  COc1cc(-n2cnc(Nc3nc(N4CCC[C@H]4C(N)=O)nc4cnccc34)c2)cc(OC)c1OC [Compound 379a]        > 7.00
 4  COc1cc(-n2cnc(Nc3nc(N4CCC[C@H]4C(N)=O)nc4c(OC(C)C)cccc34)c2)cc(OC)c1OC [Compound 143h]        > 7.00
 5  Cc1cc(Cl)cc(-c2cnc(Nc3nc(N4CCC[C@H]4CO)nn4cccc34)s2)c1 [Compound 475c]        < 6.00
 6  OC[C@@H]1CCCN1c1nc(Nc2cn(-c3cccc(OC(F)(F)F)c3)cn2)c2cccn2n1 [Compound 330b]        > 7.00
 7  COc1cc(-n2cnc(Nc3nc(N4CCC[C@H]4C(N)=O)nc4sccc34)c2)cc(OC)c1OC [Compound 155a]        > 7.00
 8  COc1cc(-n2cnc(Nc3ccc4ccc(Nc5cn(-c6cc(OC)c(OC)c(OC)c6)cn5)cc4c3)c2)cc(OC)c1OC [Compound 208b]        > 7.00
 9  COc1cc(-n2cnc(Nc3nc(-c4cccc(CO)c4)nn4cccc34)c2)cc(OC)c1OC [Compound 134a]        > 7.00
10  COc1cc(-n2cnc(Nc3nc(N4CCC[C@H]4CO)c4ccc(OC(C)C)cc4n3)c2)cc(OC)c1OC [Compound 244b]        > 7.00
11  CC(C)(C)OC(=O)N1CC=C(c2ccc3c(Nc4cn(-c5ccccc5)cn4)nc(N4CCC[C@H]4CO)nn23)CC1 [Compound 80a]  6.00 to 7.00
12  COc1cc(-n2cnc(Nc3nc(N4CCC[C@H]4CO)nc4ccsc34)c2)cc(OC)c1OC [Compound 75b]        > 7.00
13  COc1cc(-c2ccc(Nc3nc(N4CCC[C@H]4CO)nc4ccccc34)nc2)cc(OC)c1OC [Compound 370b]        < 6.00
14  COc1cc(-n2cnc(Nc3nc(N4CCC[C@@H]4C(N)=O)nn4c(CN5CCCCC5)ccc34)c2)cc(OC)c1OC [Compound 349a]        > 7.00
15  Cn1cnc(Nc2nc(N3CCCC3c3ccccn3)nc3ccoc23)c1 (stereo not drawn)        > 7.00
16  COc1cc(-n2cnc(Nc3nc(N4CCC[C@H]4CO)nc4cc(Br)ccc34)c2)cc(OC)c1OC [Compound 344c]        > 7.00
17  COc1cc(-n2cnc(Nc3nc(N4CCC[C@H]4CO)nc4ccn(S(=O)(=O)c5ccc(C)cc5)c34)c2)cc(OC)c1OC [Compound 160c]        < 6.00
18  COc1cc(-n2cnc(Nc3nc(N4CCC[C@H]4CO)nn4c(C5=CCN(C(=O)OC(C)(C)C)CC5)ccc34)c2)cc(OC)c1OC [Compound 98a]        > 7.00
19  COC(=O)c1cnc(Nc2nc(N3CCC[C@H]3CO)nn3cccc23)s1 [Compound 455d]        < 6.00
20  COc1cc(-n2cnc(Nc3nc(N4CCC[C@H]4C(N)=O)nc4ccsc34)c2)cc(OC)c1OC [Compound 189a]        > 7.00
21  COc1cc(-n2cnc(Nc3nc(N4CCC[C@H]4CO)c4c(C)nn([C@H]5C[C@H](O)C5)c4n3)c2)cc(OC)c1OC [Compound 465c]        > 7.00

---

IC50 data for ALK2 (Homo sapiens (Human)) follow.
assay-endpoint: IC50

> print(dat)
                                    compound  assay.endpoint       obs.value
 1  COc1cc(-n2cnc(Nc3nc(N4CCC[C@H]4C(N)=O)nc4[nH]nc(C)c34)c2)cc(OC)c1OC [Compound 401b]            IC50       > 1000 nM
 2  CNC(=O)c1cc(OC)cc(-n2cnc(Nc3nc(N4CCC[C@H]4CO)nn4cccc34)c2)c1 [Compound 427b]            IC50        < 100 nM
 3  COc1cc(-n2cnc(Nc3nc(N4CCC[C@H]4C(=O)NC4CC4)nc4ccoc34)c2)cc(OC)c1OC [Compound 247b]            IC50        < 100 nM
 4  Cc1cc2nc(N3CCC[C@H]3CO)nc(Nc3cn(-c4ccccc4)cn3)c2s1 [Compound 23c]            IC50        < 100 nM
 5  Cn1cnc(Nc2nc(N3CCC[C@H]3CO)nc3ccoc23)c1 [Compound 2a]            IC50  100 to 1000 nM
 6  COc1cc(-n2cnc(Nc3nc4c(c(N5CCC[C@@H]5CO)n3)CNC4)c2)cc(OC)c1OC [Compound 366c]            IC50        < 100 nM
 7  COC(=O)c1cc(Nc2cn(-c3cc(OC)c(OC)c(OC)c3)cn2)c2occc2c1 [Compound 411b]            IC50  100 to 1000 nM
 8  OCc1cc2nc(N3CCC[C@H]3CO)nc(Nc3cn(-c4ccccc4)cn3)c2s1 [Compound 78f]            IC50        < 100 nM
 9  COc1cc(-n2cnc(Nc3nc(N4CC(F)(F)C[C@H]4CO)c4cccn4n3)c2)cc(OC)c1OC [Compound 223b]            IC50        < 100 nM
10  COc1cc(-n2cnc(Nc3nc(N4CCC[C@H]4CO)c4cnn(C5CCCCO5)c4n3)c2)cc(OC)c1OC (some centres unmarked) [Compound 430b]            IC50        < 100 nM
11  COc1cc(-n2cnc(Nc3nc(N4CCC[C@H]4CO)c4cccn4n3)c2)cc(C(N)=O)c1OC [Compound 231a]            IC50  100 to 1000 nM
12  COc1cc(-n2cnc(Nc3nc(N4CCC[C@H]4C(N)=O)c4[nH]ccc4n3)c2)cc(OC)c1OC [Compound 191c]            IC50        < 100 nM
13  COc1cc(-n2cnc(Nc3nc(N4CCC[C@H]4CO)nc4cnccc34)c2)cc(OC)c1OC [Compound 378c]            IC50        < 100 nM
14  COc1cc(-n2cnc(Nc3nc(-c4cccc(C(N)=O)c4)nc4sccc34)c2)cc(OC)c1OC [Compound 146a]            IC50        < 100 nM
15  COc1cc(-n2cnc(Nc3nc(N4CCC[C@@H]4C(N)=O)nc4sccc34)c2)cc(OC)c1OC [Compound 298a]            IC50        < 100 nM
16  COc1cc(-n2cnc(Nc3nc(N4CCC[C@H]4C(N)=O)nc4c3CCN(C(=O)OC(C)(C)C)C4)c2)cc(OC)c1OC [Compound 185a]            IC50        < 100 nM
17  COc1cc(-n2cnc(Nc3nc(N4CCC[C@H]4CO)nc4c3CCC4)c2)cc(OC)c1OC [Compound 289b]            IC50        < 100 nM

---

Target: ALK2 (Homo sapiens (Human), UniProt Q04771)
pIC50: −log10 of the molar value.
assay-endpoint: pIC50

> print(dat)
                                    compound                             tested.target  assay.endpoint     obs.value
 1  OC[C@@H]1CCCN1c1nc(Nc2cn(-c3ccccc3)cn2)c2scc(Br)c2n1 [Compound 87c]  ALK2 (Homo sapiens (Human), UniProt Q04771)           pIC50  6.00 to 7.00
 2  COc1cc(C(N)=O)cc(-n2cnc(Nc3nc(N4CCC[C@H]4CO)nn4cccc34)c2)c1 [Compound 125c]  ALK2 (Homo sapiens (Human), UniProt Q04771)           pIC50        > 7.00
 3  COc1cc(-n2cnc(Nc3nc(N4CCC[C@@H]4C(N)=O)nc4ccsc34)c2)cc(OC)c1OC [Compound 299a]  ALK2 (Homo sapiens (Human), UniProt Q04771)           pIC50        > 7.00
 4  COc1ccc(-n2cnc(Nc3nc(N4CCC[C@H]4CO)c4cccn4n3)c2)cc1C(F)(F)F [Compound 229d]  ALK2 (Homo sapiens (Human), UniProt Q04771)           pIC50  6.00 to 7.00
 5  OC[C@@H]1CCCN1c1nc(Nc2cn(-c3cccc4c3OCO4)cn2)c2cccn2n1 [Compound 424e]  ALK2 (Homo sapiens (Human), UniProt Q04771)           pIC50        > 7.00
 6  COc1cc(-n2cnc(Nc3nc(N4CCC[C@H]4CO)c4ncsc4n3)c2)cc(OC)c1OC [Compound 150c]  ALK2 (Homo sapiens (Human), UniProt Q04771)           pIC50        > 7.00
 7  COc1cc(-n2cnc(Nc3nc(N4CCC[C@@H]4C(N)=O)nc4cc(F)ccc34)c2)cc(OC)c1OC [Compound 288a]  ALK2 (Homo sapiens (Human), UniProt Q04771)           pIC50        > 7.00
 8  COc1cc(C(=O)N(C)C)cc(-n2cnc(Nc3nc(N4CCC[C@H]4CO)nn4cccc34)c2)c1 [Compound 426c]  ALK2 (Homo sapiens (Human), UniProt Q04771)           pIC50        > 7.00
 9  COc1cc(-n2cnc(Nc3nc(N4CCC[C@H]4CO)nc4c(OC(C)C)cccc34)c2)cc(OC)c1OC [Compound 144a]  ALK2 (Homo sapiens (Human), UniProt Q04771)           pIC50        > 7.00
10  c1ccc(C2CCCN2c2nc(Nc3cn(-c4cc[nH]n4)cn3)c3cccn3n2)nc1 (stereo not shown) [Compound 74a]  ALK2 (Homo sapiens (Human), UniProt Q04771)           pIC50        < 6.00
11  COc1cc(-n2cnc(Nc3nc(N4CCC[C@H]4CO)nc4c3CCN(C(=O)OC(C)(C)C)C4)c2)cc(OC)c1OC [Compound 183b]  ALK2 (Homo sapiens (Human), UniProt Q04771)           pIC50        > 7.00
12  OC[C@@H]1CCCN1c1nc(Nc2cn(-c3cccc4ncccc34)cn2)c2cccn2n1 [Compound 76c]  ALK2 (Homo sapiens (Human), UniProt Q04771)           pIC50        > 7.00
13  COc1cc(-n2cnc(Nc3nc(N4CCC[C@H]4C(N)=O)nc4sc(CN5CCCCC5)cc34)c2)cc(OC)c1OC [Compound 406b]  ALK2 (Homo sapiens (Human), UniProt Q04771)           pIC50        > 7.00
